Entry source: patent US9290451B2

Tested on: human CB2 receptors (Homo sapiens (Human), UniProt P34972)
Sequence (P34972 whole entry): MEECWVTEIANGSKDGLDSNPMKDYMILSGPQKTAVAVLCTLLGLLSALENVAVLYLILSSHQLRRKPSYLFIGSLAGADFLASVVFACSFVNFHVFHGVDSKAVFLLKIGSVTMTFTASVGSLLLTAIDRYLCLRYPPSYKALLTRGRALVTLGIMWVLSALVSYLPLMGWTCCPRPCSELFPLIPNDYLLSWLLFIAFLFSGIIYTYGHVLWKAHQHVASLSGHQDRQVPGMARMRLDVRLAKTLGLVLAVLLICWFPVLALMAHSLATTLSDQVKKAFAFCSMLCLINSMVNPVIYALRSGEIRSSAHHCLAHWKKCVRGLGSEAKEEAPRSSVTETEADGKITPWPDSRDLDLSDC
Method description: cAMP assay, CHO cells expressing human CB2 receptors
Assay type: cell-based
Assay conditions: CHO cells expressing human CB2, cAMP; read-out: human CB2 EC50
Parameter measured: EC50 (nM)

1) CS(=O)(=O)CC[C@H](NC(=O)c1ccc(N2CC(F)(F)C2)c(OCC2CC2)n1)C(N)=O [Example 345] ... 295
2) CCC(CC)(NC(=O)c1ccc(C2CCOCC2)c(OCC2CC2)n1)C(=O)NC [Example 85] ... 186
3) O=C(NC1CCS(=O)(=O)C1)c1ccc(N2CC(F)(F)C2)c(OCC2CC2)n1 (centres unmarked) [Example 292] ... 874
4) O=C(NC1(C(F)(F)F)CC1)c1ccc(N2CC(F)(F)C2)c(OCC2CC2)n1 [Example 378] ... 6.4
5) CC1CC(NC(=O)c2cccc(-c3cccc(Cl)c3)n2)CCO1 (centres unmarked) [Example 26] ... 691
6) CCC(CC)(NC(=O)c1ccc(C(F)(F)F)c(OCC2CCOCC2)n1)C(=O)OC [Example 238] ... 0.4
7) CC(C)C[C@H](NC(=O)c1ccc(C2(O)COC2)c(OCC2CC2)n1)C(N)=O [Example 150] ... 157
8) CC(C)C[C@@H](CNc1ccc([N+](=O)[O-])c2nonc12)NC(=O)c1ccc(N2CCCC2)c(OCC2CC2)n1 [Example 344] ... 25.6
9) O=C(NC(c1ccccn1)C(F)(F)F)c1ccc(C2CC2)c(OCC2CCOCC2)n1 (centres unmarked) [Example 223] ... 10.9
10) CC(C)C[C@H](NC(=O)c1ccc(N2CC(O)C2)c(OCC2CC2)n1)C(N)=O [Example 131] ... 78.4
11) CCC(CC)(NC(=O)c1ccc(C2CCCC2)c(OCC2CC2)n1)C(=O)NC [Example 111] ... 6.9
12) CNC(=O)[C@@H](NC(=O)c1cccc(-c2ccccc2)n1)C(C)(C)C [Example 204] ... 13.2
13) NC(=O)C1(NC(=O)c2ccc(C3CC3)c(OCC3CC3)n2)CCOCC1 [Example 180] ... 423
14) Cc1nc([C@H](CC2CC2)NC(=O)c2ccc(C3CC3)c(OCC(F)(F)C(F)(F)F)n2)no1 [Example 300] ... 31.8
15) CC(C)(NC(=O)c1ccc(C(F)(F)F)c(OCC2CC2)n1)c1nccs1 [Example 121] ... 111
16) CNC(=O)[C@@H](NC(=O)c1cccc(-c2ccc(F)c(Cl)c2)n1)C(C)(C)C [Example 216] ... 2.7
17) Cc1nc(C(NC(=O)c2ccc(C3CC3)c(OCC3CCOCC3)n2)C2CC2)no1 (centres unmarked) [Example 219] ... 10.8
